Ref: patent US9175024B2

Each entry below carries its recorded LD50 at 14 days.
Assay: Acute toxic effect of platinum complex on normal mice (LD50, single intravenous administration)
Assay type: in vivo, Kunming mice
Settings: both sexes, Kunming, mouse, in vivo; single intravenous administration in 5% glucose solution, 14 days observation, Bliss method
Please format your answer as a value with the unit trailing.

These solved cases illustrate the format of a correct answer.
* CCN(CC)CCC1CC(=O)[O][Pt]([NH2])([NH2])[O]C1=O (stereo not drawn) | 652 µmol/kg
* NCCCC1CC(=O)[O][Pt]([NH2])([NH2])[O]C1=O (stereo not drawn) | 556 µmol/kg
* CN(C)CCCC1CC(=O)[O][Pt]([NH2])([NH2])[O]C1=O (stereo not drawn) | 521 µmol/kg
* CCCN(CCC)CCCC1CC(=O)[O][Pt]([NH2])([NH2])[O]C1=O (stereo not drawn) | 449 µmol/kg
* CCN(CC)CCCCC1CC(=O)[O][Pt]([NH2])([NH2])[O]C1=O (stereo not drawn) | 557 µmol/kg
* CN(C)CCC1CC(=O)[O][Pt]([NH2])([NH2])[O]C1=O (stereo not drawn) | 511 µmol/kg
* [NH2][Pt]1([NH2])[O]C(=O)CC(CCCN2CCCCC2)C(=O)[O]1 (stereo not drawn) | 623 µmol/kg
* CNCCC1CC(=O)[O][Pt]([NH2])([NH2])[O]C1=O (stereo not drawn) | 523 µmol/kg

Turning to the following compound.
Query LD50 at 14 days for [NH2][Pt]1([NH2])[O]C(=O)CC(CCCN2CCCC2)C(=O)[O]1 (stereo not drawn)
605 µmol/kg
